- System: Lolium perenne (LOLPE)
- assay.explanation: Post-emergence herbicidal activity, glasshouse pot test
- Assay type: in vivo
- conditions.used: 360 h, rate 125 g/ha, evaluated 15 days later, 100=total damage to plant, 0=no damage to plant
Would you mind labelling by pest or weed control at 125 g/ha? At or over 70% is Condition met, under is Condition not met.

molecule	assigned.category
Cc1cc(-c2ccccc2)cc(C)c1C1=C(OC(=O)C(C)C)[C@H]2[C@@H](C1=O)[C@@H]1CC[C@H]2O1 [Compound P2]	Condition met
CCc1ccc(-c2ccc(Cl)cc2Cl)cc1C1=C(O)[C@H]2[C@@H](C1=O)[C@]1(C)CC[C@@]2(C)O1	Condition not met
Cc1cc(-c2ccccc2)cc(C)c1C1=C(OC(=O)C(C)(C)C)[C@H]2[C@@H](C1=O)[C@]1(C)CC[C@H]2O1	Condition met
Cc1cc(-c2ccc(C(F)(F)F)cc2)cc(C)c1C1C(=O)[C@@H]2[C@H](C1=O)[C@H]1CC[C@@H]2O1 (stereo partly shown)	Condition not met
CCc1cc(-c2ccc(C)cc2)cc(CC)c1C1C(=O)[C@@H]2[C@H](C1=O)[C@H]1CC[C@@H]2O1 (stereo partly shown)	Condition met
Cc1cc(-c2ccccc2)cc(C)c1C1=C(OC(=O)c2c(C)noc2C)[C@H]2[C@@H](C1=O)[C@@H]1CC[C@H]2O1	Condition met
Cc1cc(-c2ccccc2)cc(C)c1C1=C(OC(=O)C(C)(C)C)[C@H]2[C@@H](C1=O)[C@]1(C)CC[C@@]2(C)O1	Condition not met
CCc1ccc(-c2ccc(Cl)cc2F)cc1C1=C(O)[C@H]2[C@@H](C1=O)[C@@H]1CC[C@H]2O1	Condition met
CCc1ccc(-c2ccc(Cl)c(F)c2)cc1C1=C(O)[C@H]2[C@@H](C1=O)[C@@H]1CC[C@H]2O1	Condition met
CCc1ccc(-c2ccc(Cl)c(Cl)c2F)cc1C1=C(O)[C@H]2[C@@H](C1=O)[C@]1(C)CC[C@@]2(C)O1	Condition not met
Cc1cc(-c2ccccc2)cc(C)c1C1C(=O)[C@@H]2[C@H](C1=O)[C@H]1CC[C@@H]2O1 (mixture of isomers)	Condition not met
